# Tested on: K562 CRISPRi cells
# Measurement Notes: Perturb-seq pooled growth measurement (sgRNA counts, growth phenotype γ, relative activity)
# Format: cell-based, human
# Recorded Conditions: sequencing read counts; 10 days of growth (day twelve after transduction)
Some substances, each annotated with its measured Perturb-seq pooled growth sgRNA counts, d10.
Reply with the value as a number alone.

Worked cases, Perturb-seq pooled growth sgRNA counts, d10 given:
Substance | Reported Value
GINS1_−_25388381.23-P1P2_00: sgRNA targeting GINS1, GGACTAGAACGAAAGGAGTG, SEQ ID NO: 93 (listed as DNA, chemistry not fully specified) | 280
RAN_+_131356438.23-P1P2_04: sgRNA targeting RAN, GGCGGTCGCGGCGCTTAGGG, SEQ ID NO: 72 (listed as DNA, chemistry not fully specified) | 14870
RPL9_+_39460483.23-P1P2_04: sgRNA targeting RPL9, GGATGTTTCAGTGCTCGTGG, SEQ ID NO: 53 (listed as DNA, chemistry not fully specified) | 4118
CDC23_−_137548987.23-P1P2_08: sgRNA targeting CDC23, GACAGCCATCGGGACCATGG, SEQ ID NO: 99 (listed as DNA, chemistry not fully specified) | 1710

Moving on to another substance below.
Briefly, Perturb-seq pooled growth sgRNA counts, d10 measured for GNB2L1_+_180670873.23-P1P2_00: sgRNA targeting GNB2L1, GTGCAAGGCGGCGGCAGGAG, SEQ ID NO: 55 (listed as DNA, chemistry not fully specified) : 1685

Reference source: patent US20220259593A1
